Quick reference for folding stability dG unfold among some sequences
Experiment: folding stability dG unfold (combined trypsin and chymotrypsin); higher = more stable
measurement-type: folding stability dG unfold (kcal/mol)

SAGGSAGGKEFEIEKVEITVENGTITIRMIVRDKETNEYYEVEKTITFDPETKELHVEIKVKKVSAGGSAGG [r6_604_TrROS_Hall] : 3.91
SAGGSAGGMKITVEEDPATNRLTITIEVDGHTVTIVYDKDNPNKITVTVSPNMTKDEILKALKSSAGGSAGG [r6_195_TrROS_Hall] : 2.17
SAGPNLENLEIVEIKAEVLPDNSVIVPLKVRNDNGEEEEVWGRVGNGIVTLTYPNGFPAVAFIPPSAFSAGG [r19_84_TrMRF] : 0.651
SAGGSAMVVIRTTKPGGKVEVLAVNPEDGSKTVKTFSSSTSPKEVFEEVNKEFGGEVKVEKVELKASAGGSA [r15_544_TrMRF] : -0.512
